# tested.on: F508del (Homo sapiens, UniProt P13569, DEL508-508)
# Construct: expressed in transfected cells
# Sequence (P13569 with tags, fused parts or gaps DEL508-508): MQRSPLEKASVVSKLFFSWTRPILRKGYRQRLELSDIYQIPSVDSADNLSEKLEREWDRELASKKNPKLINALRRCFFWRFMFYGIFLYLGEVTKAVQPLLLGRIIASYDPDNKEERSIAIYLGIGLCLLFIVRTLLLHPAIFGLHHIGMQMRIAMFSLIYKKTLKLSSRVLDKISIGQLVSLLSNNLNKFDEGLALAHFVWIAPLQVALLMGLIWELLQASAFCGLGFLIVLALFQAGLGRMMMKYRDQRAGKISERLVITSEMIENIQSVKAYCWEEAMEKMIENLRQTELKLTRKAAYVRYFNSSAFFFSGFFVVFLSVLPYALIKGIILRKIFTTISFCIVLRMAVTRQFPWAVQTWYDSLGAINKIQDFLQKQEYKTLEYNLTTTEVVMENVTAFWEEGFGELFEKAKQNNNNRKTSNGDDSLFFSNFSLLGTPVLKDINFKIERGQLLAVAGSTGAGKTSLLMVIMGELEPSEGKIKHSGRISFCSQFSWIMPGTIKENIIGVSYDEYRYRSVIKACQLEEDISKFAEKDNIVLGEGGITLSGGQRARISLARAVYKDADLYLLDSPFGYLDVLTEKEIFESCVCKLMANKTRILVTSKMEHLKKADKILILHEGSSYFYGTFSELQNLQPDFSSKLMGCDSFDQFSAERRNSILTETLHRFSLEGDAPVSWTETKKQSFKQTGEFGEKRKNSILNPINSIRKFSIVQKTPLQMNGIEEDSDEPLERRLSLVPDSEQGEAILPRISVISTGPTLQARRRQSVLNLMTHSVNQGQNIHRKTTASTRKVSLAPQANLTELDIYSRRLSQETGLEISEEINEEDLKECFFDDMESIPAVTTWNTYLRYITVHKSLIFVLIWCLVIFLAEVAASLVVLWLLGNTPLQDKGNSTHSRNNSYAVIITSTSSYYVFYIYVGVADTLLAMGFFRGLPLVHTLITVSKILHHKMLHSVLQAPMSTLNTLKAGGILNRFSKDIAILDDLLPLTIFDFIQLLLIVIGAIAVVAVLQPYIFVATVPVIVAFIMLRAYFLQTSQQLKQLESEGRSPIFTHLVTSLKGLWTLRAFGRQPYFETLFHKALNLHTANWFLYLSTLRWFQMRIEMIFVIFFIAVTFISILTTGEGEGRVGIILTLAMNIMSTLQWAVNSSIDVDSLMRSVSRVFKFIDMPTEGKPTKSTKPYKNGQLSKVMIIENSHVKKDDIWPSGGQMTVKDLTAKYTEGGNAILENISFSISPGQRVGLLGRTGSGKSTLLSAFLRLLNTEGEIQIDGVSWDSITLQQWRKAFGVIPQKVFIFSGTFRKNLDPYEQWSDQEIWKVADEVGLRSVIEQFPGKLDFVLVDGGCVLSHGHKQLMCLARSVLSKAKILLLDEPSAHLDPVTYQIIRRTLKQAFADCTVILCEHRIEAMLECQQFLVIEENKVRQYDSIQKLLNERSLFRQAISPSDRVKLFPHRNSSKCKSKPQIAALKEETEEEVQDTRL
# method: Protocol 2: FRET membrane potential optical assay (VIPR), identification of correction compounds
# Format: cell-based
# test.parameters: F508del CFTR modulator activity; compounds of Table 1; read-out: EC30
Measured EC30 accompanies every entry in the list below.

CC(C)Cn1cc(-c2ccc(C(=O)NS(=O)(=O)c3cccnc3N)c(N3C[C@@H](C)CC3(C)C)n2)cn1 [Compound 2231]: < 3 µM
C[C@@H]1CN(c2nc(-n3ccc(-c4ccccn4)n3)ccc2C(=O)NS(=O)(=O)C2CC2)C(C)(C)C1 [Compound 2711]: 3 to 10 µM

Data request: Fill in: EC30 of CCOCCOCCOc1ccc(C(=O)NS(=O)(=O)c2cccnc2N)c(N2C[C@@H](C)CC2(C)C)n1 [Compound 2700] is ___
Data returned: < 3 µM

Data request: Fill in: EC30 of CCCCCCN1CCN(c2cccc(S(=O)(=O)NC(=O)c3cccnc3N3CC(C)CC3(C)C)n2)CC1 (stereo not shown) [Compound 2423] is ___
Data returned: < 3 µM

###

Measured EC30 accompanies every entry in the list below.
# tested.on: F508del (Homo sapiens, UniProt P13569, DEL508-508)
# Construct: expressed in transfected cells
# method: Protocol 2: FRET membrane potential optical assay (VIPR), identification of correction compounds
# Assay type: cell-based
# test.parameters: F508del CFTR modulator activity; compounds of Table 1; read-out: EC30

Some solved cases for reference:
COc1cccc(S(=O)(=O)NC(=O)c2cccnc2N2CC(C)CC2(C)C)n1 (stereo not shown): 3000 to 10000 nM
Cc1noc(C)c1-c1ccc(C(=O)NS(=O)(=O)c2cccnc2N)c(N2C[C@@H](C)CC2(C)C)n1: 3000 to 10000 nM
CC(C)Oc1ccn(-c2ccc(C(=O)NS(=O)(=O)c3ccc[nH]c3=O)c(N3C[C@@H](C)CC3(C)C)n2)n1: 3000 to 10000 nM

// below: EC30 requested for another compound
Data request: Checklist item: EC30 tested on F508del (Homo sapiens, UniProt P13569, DEL508-508), entry CCOc1cc(-c2ccc(C(=O)NS(=O)(=O)c3cccnc3N)c(N3C[C@@H](C)CC3(C)C)n2)ccc1F , value?
Data returned: < 3000 nM

###

# tested.on: F508del (Homo sapiens, UniProt P13569, DEL508-508)
# Construct: expressed in transfected cells
# method: Protocol 2: FRET membrane potential optical assay (VIPR), identification of correction compounds
# Assay type: cell-based
# test.parameters: F508del CFTR modulator activity; compounds of Table 1; read-out: EC30
reported.metric: EC30

Some solved cases for reference:
CCN(CC)c1cc(C)cc(-c2ccc(C(=O)NS(=O)(=O)c3cccc(N)n3)c(N3C[C@@H](C)CC3(C)C)n2)n1: < 3000 nM
COC1CCCN(c2cccc(S(=O)(=O)NC(=O)c3cccnc3N3CC(C)CC3(C)C)n2)C1 (centres unmarked): 3000 to 10000 nM
CC1CN(c2ncccc2C(=O)NS(=O)(=O)c2cccc(OCc3ccc(F)cc3)n2)C(C)(C)C1 (centres unmarked): < 3000 nM
Cc1ccc(-c2ccc(C(=O)NS(=O)(=O)c3ccc[nH]c3=O)c(N3C[C@@H](C)CC3(C)C)n2)cc1: < 3000 nM
Cc1ccc(-c2ccc(C(=O)NS(=O)(=O)c3ccc[nH]c3=O)c(N3C[C@@H](C)CC3(C)C)n2)c(F)c1: < 3000 nM
COc1cccc(-c2ccc(C(=O)NS(=O)(=O)N3CC[C@H](N)C3)c(N3C[C@@H](C)CC3(C)C)n2)c1: 3000 to 10000 nM
COc1c(C)cccc1-c1ccc(C(=O)NS(=O)(=O)c2cccnc2N)c(N2C[C@@H](C)CC2(C)C)n1: < 3000 nM

// below: EC30 requested for another compound
Data request: Fill in: EC30 of CC(C)CC/C=C/c1cnc(N2CC(C)CC2(C)C)c(C(=O)NS(=O)(=O)c2cccc(N)n2)c1 (centres unmarked) is ___
Data returned: < 3000 nM
